# tgt: von Hippel-Lindau disease tumor suppressor/Androgen receptor (Homo sapiens, UniProt P10275+P40337)
# Sequence (P10275 whole entry, looked up): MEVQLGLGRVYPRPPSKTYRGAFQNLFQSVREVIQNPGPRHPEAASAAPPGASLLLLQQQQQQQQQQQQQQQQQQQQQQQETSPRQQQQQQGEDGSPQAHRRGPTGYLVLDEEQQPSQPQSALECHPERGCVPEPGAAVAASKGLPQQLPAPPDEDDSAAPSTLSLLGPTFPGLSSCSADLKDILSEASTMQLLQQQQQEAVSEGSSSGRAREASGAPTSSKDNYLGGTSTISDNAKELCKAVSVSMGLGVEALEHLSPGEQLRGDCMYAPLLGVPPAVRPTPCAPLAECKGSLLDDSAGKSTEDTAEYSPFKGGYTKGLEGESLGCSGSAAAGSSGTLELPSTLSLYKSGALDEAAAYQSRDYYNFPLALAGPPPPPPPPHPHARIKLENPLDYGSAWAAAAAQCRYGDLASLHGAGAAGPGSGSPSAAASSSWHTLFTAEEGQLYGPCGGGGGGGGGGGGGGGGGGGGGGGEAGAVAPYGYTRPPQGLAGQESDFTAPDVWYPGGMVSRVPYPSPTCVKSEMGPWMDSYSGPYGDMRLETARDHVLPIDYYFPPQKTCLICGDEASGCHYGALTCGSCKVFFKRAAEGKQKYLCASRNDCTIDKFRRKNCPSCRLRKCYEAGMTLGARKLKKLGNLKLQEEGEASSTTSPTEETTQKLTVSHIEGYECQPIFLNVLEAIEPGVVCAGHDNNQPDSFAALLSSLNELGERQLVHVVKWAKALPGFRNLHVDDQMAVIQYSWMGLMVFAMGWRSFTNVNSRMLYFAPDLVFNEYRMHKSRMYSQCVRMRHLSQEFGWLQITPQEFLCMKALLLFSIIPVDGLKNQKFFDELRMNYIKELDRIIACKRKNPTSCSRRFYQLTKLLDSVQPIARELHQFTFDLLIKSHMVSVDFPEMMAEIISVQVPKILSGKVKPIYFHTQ
# Sequence (P40337 whole entry, looked up): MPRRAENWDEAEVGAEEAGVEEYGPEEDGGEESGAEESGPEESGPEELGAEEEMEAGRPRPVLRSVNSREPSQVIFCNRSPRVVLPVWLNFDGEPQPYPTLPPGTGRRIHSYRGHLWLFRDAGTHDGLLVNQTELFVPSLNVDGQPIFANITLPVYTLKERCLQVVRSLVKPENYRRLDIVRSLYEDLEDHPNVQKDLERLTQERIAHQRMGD
# assay: Protac activity at VHL/AR in AR-positive human LNCaP cells assessed as induction of androgen receptor degradation at 0.1 uM incubated for 6 hrs by Western blot analysis (reference value: 0%)
# Format: cell-based
attribute.measured: Activity (%)

given.smiles	unit.spec	Activity
CC(=O)N[C@H](C(=O)N1C[C@H](O)C[C@H]1C(=O)N[C@@H](CC(=O)N1CCC(N2CCC(C#Cc3ccc(C(=O)N[C@H]4C(C)(C)[C@H](Oc5ccc(C#N)c(Cl)c5)C4(C)C)cc3)CC2)CC1)c1ccc(-c2scnc2C)cc1)C(C)(C)C	%	77
Cc1ncsc1-c1ccc(CNC(=O)[C@@H]2C[C@@H](O)CN2C(=O)[C@@H](NC(=O)CCCCCCCCNC(=O)c2ccc(N3C(=S)N(c4ccc(C#N)c(C(F)(F)F)c4)C(=O)C3(C)C)cc2F)C(C)(C)C)cc1	%	66
Cc1cc([C@H](C(=O)N2C[C@H](O)C[C@H]2C(=O)N[C@@H](CC(=O)N2CCC(N3CCC(C#Cc4ccc(C(=O)N[C@H]5C(C)(C)[C@H](Oc6ccc(C#N)c(Cl)c6)C5(C)C)cc4)CC3)CC2)c2ccc(-c3scnc3C)cc2)C(C)C)on1	%	98
Cc1ncsc1-c1ccc(CNC(=O)[C@@H]2C[C@@H](O)CN2C(=O)[C@@H](NC(=O)CCCCCCCNC(=O)c2ccc(N3C(=S)N(c4ccc(C#N)c(C(F)(F)F)c4)C(=O)C3(C)C)cc2F)C(C)(C)C)cc1	%	29

1. Cc1ncsc1-c1ccc(CNC(=O)[C@@H]2C[C@@H](O)CN2C(=O)[C@@H](NC(=O)CCCN2CCN(c3ccc(C#Cc4ccc(N5C(=S)N(c6ccc(C#N)c(C(F)(F)F)c6)C(=O)C5(C)C)cc4)cn3)CC2)C(C)(C)C)cc1
2. Cc1ncsc1-c1ccc(CNC(=O)[C@@H]2C[C@@H](O)CN2C(=O)[C@@H](NC(=O)CCOCCOCCNC(=O)c2ccc(N3C(=S)N(c4ccc(C#N)c(C(F)(F)F)c4)C(=O)C3(C)C)cc2F)C(C)(C)C)cc1
I'd appreciate it if you could identify which of 1 and 2 has the greater Activity. Reply briefly: the label of your chosen item.
1

1. Cc1ncsc1-c1ccc([C@H](C)NC(=O)[C@@H]2C[C@@H](O)CN2C(=O)[C@@H](NC(=O)CCN2CCN(c3ccc(C#Cc4ccc(N5C(=S)N(c6ccc(C#N)c(C(F)(F)F)c6)C(=O)C5(C)C)cc4)cn3)CC2)C(C)(C)C)cc1
2. Cc1ncsc1-c1ccc([C@H](C)NC(=O)[C@@H]2C[C@@H](O)CN2C(=O)[C@@H](NC(=O)CN2CCN(c3ccc(C#Cc4ccc(N5C(=S)N(c6ccc(C#N)c(C(F)(F)F)c6)C(=O)C5(C)C)cc4)cn3)CC2)C(C)(C)C)cc1
Hi there, can you help? I need to know whether 1 or 2 has lower measured Activity. Reply briefly: the label of your chosen item.
2
(2: 3%, 1: 51%)

I. Cc1ncsc1-c1ccc(CNC(=O)[C@@H]2C[C@@H](O)CN2C(=O)[C@@H](NC(=O)CCCCCCCCCCNC(=O)c2ccc(N3C(=S)N(c4ccc(C#N)c(C(F)(F)F)c4)C(=O)C3(C)C)cc2F)C(C)(C)C)cc1
II. Cc1ncsc1-c1ccc([C@H](CC(=O)N2CCC(N3CCC(C#Cc4ccc(C(=O)N[C@H]5C(C)(C)[C@H](Oc6ccc(C#N)c(Cl)c6)C5(C)C)cc4)CC3)CC2)NC(=O)[C@@H]2C[C@@H](O)CN2C(=O)[C@@H](NC(=O)C2(F)CC2)C(C)(C)C)cc1
III. Cc1ncsc1-c1ccc(CNC(=O)[C@@H]2C[C@@H](O)CN2C(=O)[C@@H](NC(=O)CCCCCCCCCCCNC(=O)c2ccc(N3C(=S)N(c4ccc(C#N)c(C(F)(F)F)c4)C(=O)C3(C)C)cc2F)C(C)(C)C)cc1
IV. Cc1ncsc1-c1ccc(CNC(=O)[C@@H]2C[C@@H](O)CN2C(=O)[C@@H](NC(=O)CCCNC(=O)c2ccc(N3C(=S)N(c4ccc(C#N)c(C(F)(F)F)c4)C(=O)C3(C)C)cc2F)C(C)(C)C)cc1
Sort by Activity, descending. Give the labels in the order specified.
II, I, III, IV
(II: 99%, I: 48%, III: 30%, IV: 15%)
